system_tested: Sa_enolase (octamer) (Staphylococcus aureus, UniProt O69174)
Construct: C-terminal hexahistidine tag, pET-24a, E. coli BL21(DE3); residues 1-434 described; octamer fraction separated from dimer by size-exclusion chromatography
procedure_summary: isothermal titration calorimetry
measurement_type: pKd
# pKd is unitless: minus log10 of the molar concentration; print number only

Record `O=C(O)[C@@H](CO)OP(=O)(O)O` . Reported pKd: 4.82
